- assay.method.text: Human HepG2 cell viability assay in 384 well format
- Format: toxicity, cell-based
- Set-up: dose 125 nL, time 70.5 hour; concentration not given beside the values
- measurement.conditions: HepG2 cells, read-out: Inhibition
quantity: cytotoxicity at 70.5 h (%)

{"columns": ["compound", "quantity", "unit.label", "reported"],
 "data": [
  ["CN1CCC(CN(C)C(=O)c2cc(C3CCCN3C)ccn2)CC1 (stereo unspecified)", "cytotoxicity at 70.5 h", "%", -6.76],
  ["N#Cc1cccc(C(=O)NS(=O)(=O)c2ccc(C#N)c(Cl)c2)c1", "cytotoxicity at 70.5 h", "%", 27.3],
  ["CC(C)CC(=O)NCC(O)c1c(F)cccc1F (stereo unspecified)", "cytotoxicity at 70.5 h", "%", -7.25],
  ["CC(C)Nc1ncc(-c2csc(NC(=O)C[C@H]3COCCN3)n2)cn1", "cytotoxicity at 70.5 h", "%", -10.2],
  ["COCC1CC2(CCN(C(=O)c3ccc(F)c(Cl)c3)CC2)CO1 (stereo unspecified)", "cytotoxicity at 70.5 h", "%", 13],
  ["Cn1cc(CN2CCCCC2c2ccc(-c3cnn(C)c3)nc2)cn1 (stereo unspecified)", "cytotoxicity at 70.5 h", "%", -8.29],
  ["Cc1noc(C2CCN(C(=O)CCCNc3ncccn3)CC2)n1", "cytotoxicity at 70.5 h", "%", 1.13],
  ["CCn1ccc2ccnc(CC3CN(C(=O)Cn4ccnc4C)C3)c21", "cytotoxicity at 70.5 h", "%", -5.67],
  ["CS(=O)(=O)N1CCC2(CCCN(CCCc3ccccc3)C2=O)C1 (stereo unspecified)", "cytotoxicity at 70.5 h", "%", -6.93],
  ["COc1c(CNCc2nnc3n2CCCCC3)c(C(C)C)nn1C", "cytotoxicity at 70.5 h", "%", -4.88],
  ["CC(C)(C)CC(=O)NCCn1nc(C2CCNC2)c2cccnc21 (stereo unspecified)", "cytotoxicity at 70.5 h", "%", -6.02]
]}
